Just for reference, ChEMBL document CHEMBL1126093 is where these values come from.

# assay-system: UniProtKB P16455
# method-summary: In vitro inhibition of human alkyl transferase in HT-29 cell-free extracts.
measured-parameter: ED50 (µM)

Observe how each entry below is paired with its result.
compound: CCOC(=O)Cn1cnc2c(OCc3ccccc3)nc(N)nc21
ED50 / µM: 30

compound: CCC(O)Cn1cnc2c(OCc3ccccc3)nc(N)nc21 (stereo unspecified)
ED50 / µM: 13

compound: Nc1nc(OCc2ccccc2)c2ncn(CC(=O)O)c2n1
ED50 / µM: 157

compound: COc1nc(N)nc2nc[nH]c12
ED50 / µM: 350

I: NC(=O)Cn1cnc2c(OCc3ccccc3)nc(N)nc21
II: Nc1nc(OCc2ccccc2)c2ncn(C3O[C@H](CO)[C@@H](O)[C@H]3O)c2n1 (stereo partly specified)
Ask: Higher ED50 between I and II ? Select an item and report its label.
Result: I

---

# assay-system: Methylated-DNA--protein-cysteine methyltransferase (Homo sapiens) (UniProt P16455)
# Sequence (P16455 whole entry): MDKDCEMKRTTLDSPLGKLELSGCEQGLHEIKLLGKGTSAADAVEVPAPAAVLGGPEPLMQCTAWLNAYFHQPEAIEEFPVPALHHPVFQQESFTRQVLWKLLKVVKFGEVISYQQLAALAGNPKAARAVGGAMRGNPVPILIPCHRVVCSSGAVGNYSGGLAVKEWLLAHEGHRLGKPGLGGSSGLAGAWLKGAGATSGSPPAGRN
# method-summary: Inhibitory activity against alkyl transferase in HT-29 cells
# Format: cell-based
measured-parameter: ED50 (nM)

Observe how each entry below is paired with its result.
molecule: Nc1nc(OCc2ccccc2)c2ncn(C3O[C@H](CO)[C@@H](O)[C@H]3O)c2n1 (stereo partly specified)
assay-system: Methylated-DNA--protein-cysteine methyltransferase (Homo sapiens) (UniProt P16455)
observed-result: 2000
//
molecule: Cc1ccc(COc2nc(N)nc3c2ncn3C2O[C@H](CO)[C@@H](O)[C@H]2O)cc1 (stereo partly specified)
assay-system: Methylated-DNA--protein-cysteine methyltransferase (Homo sapiens) (UniProt P16455)
observed-result: 3000

A: N#CCn1cnc2c(OCc3ccccc3)nc(N)nc21
B: Nc1nc(OCc2ccc(Cl)cc2)c2ncn(C3O[C@H](CO)[C@@H](O)[C@H]3O)c2n1 (stereo partly specified)
Ask: Higher ED50 between A and B ? Select an item and report its label.
Result: B

A: Nc1nc(OCc2ccc(Cl)cc2)c2[nH]cnc2n1
B: NC(=O)Cn1cnc2c(OCc3ccccc3)nc(N)nc21
C: Nc1nc(OCc2ccc(F)cc2)c2[nH]cnc2n1
D: CCOC(=O)Cn1cnc2c(OCc3ccccc3)nc(N)nc21
Ask: Arrange the 4 entries by ED50 so the values rise. Answer format: the labels, in the requested order.
Result: C, A, D, B
(C: 50 nM, A: 80 nM, D: 3000 nM, B: 7500 nM)

a: Cc1ccc(COc2nc(N)nc3nc[nH]c23)cc1
b: c1ccc(COc2[nH]cnc3ncnc2-3)cc1
Ask: Higher ED50 between a and b ? Select an item and report its label.
Result: b

---

# assay-system: Methylated-DNA--protein-cysteine methyltransferase (Homo sapiens) (UniProt P16455)
# method-summary: In vitro inhibition of human alkyl transferase in HT-29 cell-free extracts.
measured-parameter: ED50 (µM)

Observe how each entry below is paired with its result.
compound: C=CCOc1nc(N)nc2nc[nH]c12
unit-text: µM
observed-result: 20
//
compound: Nc1nc(OCc2ccc(Cl)cc2)c2[nH]cnc2n1
unit-text: µM
observed-result: 0.2
//
compound: c1ccc(COc2[nH]cnc3ncnc2-3)cc1
unit-text: µM
observed-result: 85
//
compound: N#CCn1cnc2c(OCc3ccccc3)nc(N)nc21
unit-text: µM
observed-result: 13
//
compound: Nc1nc(OCc2ccccc2)c2ncn([C@H]3C[C@H](O)[C@@H](CO)O3)c2n1
unit-text: µM
observed-result: 2

1: Nc1nc(OCc2ccc(Cl)cc2)c2ncn(C3O[C@H](CO)[C@@H](O)[C@H]3O)c2n1 (some centres undefined)
2: Cc1ccc(COc2nc(N)nc3nc[nH]c23)cc1
Ask: // compare measured ED50 between 1 and 2 ; output the lower one Select an item and report its label.
Result: 2
(2: 0.2 µM, 1: 10 µM)

1: Cc1ccc(COc2nc(N)nc3c2ncn3C2O[C@H](CO)[C@@H](O)[C@H]2O)cc1 (some centres undefined)
2: Nc1nc(OCc2ccc(F)cc2)c2[nH]cnc2n1
Ask: // compare measured ED50 between 1 and 2 ; output the lower one Select an item and report its label.
Result: 2

---

# assay-system: Methylated-DNA--protein-cysteine methyltransferase (Homo sapiens)
# method-summary: Inhibitory activity against alkyl transferase in HT-29 cells
# Assay type: cell-based
measured-parameter: ED50 (µM)

molecule: CCC(O)Cn1cnc2c(OCc3ccccc3)nc(N)nc21 (stereo not drawn)
measured-parameter: ED50
unit-text: µM
observed-result: 2

1: COc1nc(N)nc2nc[nH]c12
2: C=CCOc1nc(N)nc2nc[nH]c12
Ask: // compare measured ED50 between 1 and 2 ; output the lower one Select an item and report its label.
Result: 2
(2: 4 µM, 1: 120 µM)
